src = PubChem BioAssay (EPA / NIEHS)

Target: Cellular tumor antigen p53 (Homo sapiens)
Assay details: TOX21_p53_BLA_p2_ratio: Tox21 HCT-116 p53 Agonism Beta-lactamase Assay, Ratio, Phase 2 (AID 2283592)
Results filed as inconclusive are left out. Activity calls are given as the source filed them. Rule for the calls: active = hit-call score of the fitted dose curve at least 0.9, where 1 is the maximum; inconclusive = response in the unintended direction; inactive = score below 0.9.
Result category, one only: active, inactive

Recorded results for 8 molecules are shown here.
>  <Molecule>
O=C(c1ccccc1)c1ccc(O)cc1O

>  <Discrete label>
inactive

$$$$
>  <Molecule>
C[C@]12CC[C@H]3C(=CCc4cc(O)ccc43)[C@@H]1CCC2=O

>  <Discrete label>
inactive

$$$$
>  <Molecule>
CSc1ccc(Cl)cc1

>  <Discrete label>
inactive

$$$$
>  <Molecule>
CC(C)OC(=O)COc1ccc(Cl)cc1Cl

>  <Discrete label>
inactive

$$$$
>  <Molecule>
CCOC(=O)C1CC(=O)C(=C(O)C2CC2)C(=O)C1 (stereo not given)

>  <Discrete label>
inactive

$$$$
>  <Molecule>
Cc1ccc(O)c(-n2nc3ccccc3n2)c1

>  <Discrete label>
inactive

$$$$
>  <Molecule>
CC(C)Nc1ccc(NC(C)C)c2c1C(=O)c1ccccc1C2=O

>  <Discrete label>
inactive

$$$$
>  <Molecule>
CCCCCCCC/C=C\CCCCCCCC(=O)N(C)CC(=O)O

>  <Discrete label>
active

$$$$

Data request: Could you please tell me the result logged for F[Si-2](F)(F)(F)(F)F in this assay?
Data returned: inactive

Data request: Could you please tell me the result logged for Cc1ccc([N+](=O)[O-])c(C)c1 in this assay?
Data returned: inactive

* * *

Target: Estrogen receptor (Homo sapiens)
Assay details: CCTE_Deisenroth_AIME_384WELL_LUC_Active: CCTE's 384-well Estrogen Receptor Transactivation Assay with AIME metabolic competence (ERTA luciferase; metabolism positive), Deisenroth Lab (AID 2284030)
Results filed as inconclusive are left out. Activity calls are given as the source filed them. How the source made its calls: active means hit-call score of the fitted dose curve at least 0.9, where 1 is the maximum; inconclusive means response in the unintended direction; inactive means score below 0.9.
Result category, one only: label 1 for active, label 0 for inactive

Recorded results for 2 compounds are shown here.
>  <Compound>
CCCCCCCC/C=C\CCCCCCCC(=O)OCC(O)CO (stereo not drawn)

>  <Discrete label>
label 0

$$$$
>  <Compound>
CCOC(OCC)OCC

>  <Discrete label>
label 0

$$$$

Okay, next one:
Data request: Could you please tell me the result logged for O=C(c1ccccc1)c1ccc(O)cc1O in this assay?
Data returned: label 1

* * *

Assay details: BSK_BT_Bcell_Proliferation: Viability Assessment in the BioMAP Diversity Plus: BT Assay for B cell Proliferation (AID 2284227)
Condition summary: primary human B cells with PBMC
Calls of active or inactive are those of the source. How the source made its calls: active means hit-call score of the fitted dose curve at least 0.9, where 1 is the maximum; inactive means score below 0.9.
Result category, one only: Yes = active, No = inactive

Recorded results for 5 compounds are shown here.
>  <Mol smiles>
NCC(F)(F)C(F)(F)C(F)(F)C(F)(F)C(F)(F)C(F)(F)C(F)(F)C(F)(F)F

>  <Discrete label>
No

$$$$
>  <Mol smiles>
CCN(CC)c1ccc(C=O)c(O)c1

>  <Discrete label>
No

$$$$
>  <Mol smiles>
CC(C)(C)c1cc(CCC(=O)NCCCCCCNC(=O)CCc2cc(C(C)(C)C)c(O)c(C(C)(C)C)c2)cc(C(C)(C)C)c1O

>  <Discrete label>
No

$$$$
>  <Mol smiles>
O=C=NCc1cccc(CN=C=O)c1

>  <Discrete label>
No

$$$$
>  <Mol smiles>
FC(F)(F)C(F)(F)C(F)(F)C(F)(F)C(F)(F)C(F)(F)CC[Si](Cl)(Cl)Cl

>  <Discrete label>
No

$$$$

Data request: Could you please tell me the result logged for CCN(CC)c1ccc(N=Nc2ccccc2)cc1 in this assay?
Data returned: Yes

Data request: Could you please tell me the result logged for NC(=O)C(F)(F)C(F)(F)C(F)(F)C(F)(F)C(F)(F)C(F)(F)C(F)(F)F in this assay?
Data returned: No
